Molecular target: T1, rh integrin α4β7 (R&D Systems #5397-A30) (human, UniProt P13612 34-970; P26010 20-723)
T1 construct: bought; coated on a nickel coated plate; also called immobilized α4β7; immobilized α4β7 integrin protein
Experiment: competition ELISA vs MAdCAM-1
Bridge positions count the residues as written; N and C are the ends. Square brackets hold non-standard residues; d marks the D form. Phe(4-tBu) = CC(C)(C)c1ccc(C[C@H](N)C(=O)O)cc1; Phe(2,4-Cl2) = N[C@@H](Cc1ccc(Cl)cc1Cl)C(=O)O; NMeR = CN[C@@H](CCCNC(=N)N)C(=O)O; β3hE = N[C@@H](CCC(=O)O)CC(=O)O; NMeK = CN[C@@H](CCCCN)C(=O)O; Pen = CC(C)(S)[C@H](N)C(=O)O
measurementName: IC50

Can you give me IC50 for all of these, one by one?
1. Ac-[Pen][NMeR]SDTL[Pen][Phe(2,4-Cl2)]E[dK]-NH2 (disulfide 1-7; not fully specified (residue 10); printed as (Ac Pen N-Me-R S D T L Pen F(2,4-diCl) E k NH2)2 DIG, disulfide Pen-Pen; also: dimer, two subunits joined by DIG linker) [SEQ ID NO: 42]
2. Ac-[Pen][NMeR]SDTL[Pen][Phe(4-tBu)][β3hE][NMeK]-NH2 (disulfide 1-7; not fully specified (residue 10); printed as (Ac Pen N-Me-R S D T L Pen F(4-tBu) b-H-E N-Me-K NH2)2 DIG, disulfide Pen-Pen; also: homodimer (…)2 DIG via Lys10 NZ) [SEQ ID NO: 149]

Result:
≤ 10 nM
≤ 10 nM
